Tested on: A431 cell line
Test: Cellular anti-proliferative assay of VPS34 inhibitors in combination with a second therapeutic agent (Cell Titer Glo, 72 hrs)
Type: cell-based
Conditions: in combination with Erlotinib (Compound Y)
result.type: Combination Index

Fill in: A431 cell line Combination Index for `Cc1ncc(-c2ccnc(Nc3ccncn3)c2)cc1NS(=O)(=O)N(C)C` = 0.46

Fill in: A431 cell line Combination Index for `Cc1nccc(Nc2cc(-c3cnc(Cl)c(NS(=O)(=O)c4ccc(F)cc4F)c3C)ccn2)n1` = 1.01

Fill in: A431 cell line Combination Index for `CC(=O)Nc1cc(-c2cnc(C)c(NS(=O)(=O)N(C)C)c2)ccn1` = 0.73

Fill in: A431 cell line Combination Index for `CC(=O)Nc1cc(-c2cnc(C)c(NS(=O)(=O)c3ccc(Cl)cc3F)c2)ccn1` = 0.38

Fill in: A431 cell line Combination Index for `CC(=O)Nc1cc(-c2cnc(C)c(NS(=O)(=O)c3ccc(F)cc3F)c2)ccn1` = 0.38

---

Assign pIC50 to each entry below.
Biological target: human VPS34 (Homo sapiens (Human))
Experiment: Human VPS34 enzyme assay (Adapta TR-FRET ADP detection)
Format: biochemical
Details: IC50 range class
pIC50: −log10 of the molar value.

The reported value for `CC(=O)Nc1cc(-c2cnc(N)c(NCC3CC3)c2)ccn1` in terms of pIC50 is 7.30 to 8.00

The reported value for `CC(=O)Nc1cc(-c2cnc(N)c(S(=O)(=O)NCCc3ccccc3)c2)ccn1` in terms of pIC50 is 7.30 to 8.00

The reported value for `CC(=O)Nc1cc(-c2cncc(C(C)=O)c2)ccn1` in terms of pIC50 is < 7.00

The reported value for `CC(=O)Nc1cc(-c2cnc(N)c(C(=O)Nc3cccnc3)c2)ccn1` in terms of pIC50 is > 8.00

The reported value for `COc1nc(C)nc(Nc2cc(-c3cnc(C)c(NS(=O)(=O)c4ccc(F)cc4F)c3)ccn2)n1` in terms of pIC50 is > 8.00

The reported value for `COC(=O)Nc1cc(-c2cnc3[nH]ncc3c2)ccn1` in terms of pIC50 is 7.30 to 8.00

The reported value for `CC(=O)Nc1cc(-c2cnc(C)c(NS(=O)(=O)c3ccc(Cl)cc3F)c2)ccn1` in terms of pIC50 is > 8.00

The reported value for `CC(=O)Nc1cc(-c2cnc3c(c2)CCN3)ccn1` in terms of pIC50 is 7.00 to 7.30

The reported value for `CC(=O)Nc1cc(-c2cnc(F)c(NS(=O)(=O)c3ccc(F)cc3F)c2)ccn1` in terms of pIC50 is > 8.00

The reported value for `CC(=O)Nc1cc(-c2cnc(N)c(S(=O)(=O)N(C)C)c2)ccn1` in terms of pIC50 is > 8.00

The reported value for `CC(=O)Nc1cc(-c2cnc(N)c(N3CCCN(C)S3(=O)=O)c2)ccn1` in terms of pIC50 is 7.30 to 8.00

The reported value for `COc1ncc(-c2ccnc(NC(C)=O)c2)cc1S(=O)(=O)Nc1ccccc1` in terms of pIC50 is > 8.00

The reported value for `CC(=O)Nc1cc(-c2cnc(C)c(NS(=O)(=O)c3ccccc3F)c2)ccn1` in terms of pIC50 is > 8.00

The reported value for `Cc1nccc(Nc2cc(-c3cnc(N)c(C(=O)N(C)C45CC(C4)C5)c3)ccn2)n1` in terms of pIC50 is > 8.00

The reported value for `CC(=O)Nc1cc(-c2cnc(C)c(NS(=O)(=O)c3ccccc3)c2)ccn1` in terms of pIC50 is > 8.00

The reported value for `Cc1ncc(-c2ccnc(Nc3ncccn3)c2)cc1NS(=O)(=O)c1ccc(F)cc1F` in terms of pIC50 is > 8.00

The reported value for `Cc1nccc(Nc2cc(-c3cnc4c(c3)C(=O)N(Cc3ccccc3)CC4)ccn2)n1` in terms of pIC50 is < 7.00

---

Target: human VPS34 (Homo sapiens (Human))
Assay: Human VPS34 enzyme assay (Adapta TR-FRET ADP detection)
Type: biochemical
Conditions: IC50 range class
result.type: IC50

The reported value for `CC(=O)Nc1cc(-c2cncc(Nc3ncco3)c2)ccn1` in terms of IC50 is > 0.1 µM

The reported value for `CC(=O)Nc1cc(-c2cnc(C)c(NS(=O)(=O)c3cc(C(F)(F)F)ccc3F)c2)ccn1` in terms of IC50 is < 0.01 µM

The reported value for `CC(=O)Nc1cc(-c2cnc(C)c(C(=O)Nc3ccc(F)cc3F)c2)ccn1` in terms of IC50 is > 0.1 µM

The reported value for `CC(=O)Nc1cc(-c2cnc(C)c(NS(=O)(=O)C3CC3)c2)ccn1` in terms of IC50 is 0.01 to 0.05 µM

The reported value for `CC(=O)Nc1cc(-c2cnc(Cl)c(S(=O)(=O)NC3CCC3)c2)ccn1` in terms of IC50 is 0.01 to 0.05 µM

The reported value for `CNc1ncc(-c2ccnc(Nc3ccncn3)c2)cc1C(=O)N(C)C12CC(C1)C2` in terms of IC50 is 0.01 to 0.05 µM

The reported value for `Cc1nccc(Nc2cc(-c3cnc(C)c(C(=O)N4CC(F)(F)C4)c3)ccn2)n1` in terms of IC50 is 0.01 to 0.05 µM

The reported value for `COC(=O)Nc1cc(-c2cnc3ccn(CC4CC4)c3c2)ccn1` in terms of IC50 is 0.01 to 0.05 µM

The reported value for `CC(=O)Nc1cc(-c2cnc(N)c(S(=O)(=O)N(C)c3ccccc3)c2)ccn1` in terms of IC50 is < 0.01 µM

The reported value for `Cc1nccc(Nc2cc(-c3cnc4c(c3)C(=O)NCC4)ccn2)n1` in terms of IC50 is > 0.1 µM

The reported value for `CC(=O)Nc1cc(-c2cnc3c(c2)S(=O)(=O)NCCO3)ccn1` in terms of IC50 is 0.05 to 0.1 µM

The reported value for `CC(=O)Nc1cc(-c2cnc(C)c(S(N)(=O)=O)c2)ccn1` in terms of IC50 is 0.01 to 0.05 µM

The reported value for `CC(=O)Nc1cc(-c2cnc(C)c(NS(=O)(=O)N3CCCCCC3)c2)ccn1` in terms of IC50 is 0.01 to 0.05 µM

The reported value for `COc1ccccc1S(=O)(=O)Nc1cc(-c2ccnc(NC(C)=O)c2)cnc1C` in terms of IC50 is < 0.01 µM

The reported value for `CC(=O)Nc1cc(-c2cncc(S(=O)(=O)NCc3ccccc3)c2)ccn1` in terms of IC50 is 0.05 to 0.1 µM

The reported value for `Cc1nccc(Nc2cc(-c3c[n+]([O-])c(Cl)c(NS(=O)(=O)c4ccc(F)cc4F)c3C)ccn2)n1` in terms of IC50 is < 0.01 µM

The reported value for `COc1ncc(-c2ccnc(NC(C)=O)c2)cc1NS(=O)(=O)N(C)C` in terms of IC50 is 0.01 to 0.05 µM

---

Molecular target: human VPS34 (Homo sapiens (Human), UniProt Q8NEB9)
Sequence (Q8NEB9 whole entry): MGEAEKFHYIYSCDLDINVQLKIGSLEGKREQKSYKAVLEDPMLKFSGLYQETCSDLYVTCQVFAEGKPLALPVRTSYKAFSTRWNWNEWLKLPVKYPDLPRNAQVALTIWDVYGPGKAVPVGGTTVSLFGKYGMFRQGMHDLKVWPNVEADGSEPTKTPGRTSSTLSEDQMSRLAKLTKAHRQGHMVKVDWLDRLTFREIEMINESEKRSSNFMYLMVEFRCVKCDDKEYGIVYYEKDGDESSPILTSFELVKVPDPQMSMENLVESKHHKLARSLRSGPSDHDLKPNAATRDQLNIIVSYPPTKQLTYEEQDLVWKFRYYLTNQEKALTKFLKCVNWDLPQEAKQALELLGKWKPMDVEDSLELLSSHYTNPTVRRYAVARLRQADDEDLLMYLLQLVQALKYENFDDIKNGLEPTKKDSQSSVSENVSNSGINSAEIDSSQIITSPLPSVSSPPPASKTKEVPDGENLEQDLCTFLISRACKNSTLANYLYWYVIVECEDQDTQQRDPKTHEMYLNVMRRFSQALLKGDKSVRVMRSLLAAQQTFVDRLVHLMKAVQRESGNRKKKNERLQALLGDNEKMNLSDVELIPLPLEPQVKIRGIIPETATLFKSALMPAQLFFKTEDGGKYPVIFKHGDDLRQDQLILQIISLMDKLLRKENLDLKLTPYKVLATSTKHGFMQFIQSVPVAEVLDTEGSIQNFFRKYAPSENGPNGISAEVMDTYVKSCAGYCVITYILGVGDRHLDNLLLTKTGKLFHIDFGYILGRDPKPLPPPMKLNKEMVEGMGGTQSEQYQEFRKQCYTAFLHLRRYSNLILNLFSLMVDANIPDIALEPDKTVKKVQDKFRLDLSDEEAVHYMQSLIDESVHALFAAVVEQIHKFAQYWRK
Experiment: Human VPS34 enzyme assay (Adapta TR-FRET ADP detection)
Assay type: biochemical
Details: IC50 range class
result.type: IC50

The reported value for `CC(=O)Nc1cc(-c2cnc(Cl)c(NS(=O)(=O)N(C)C)c2)ccn1` in terms of IC50 is < 10 nM

The reported value for `CC(=O)Nc1cc(-c2cnc(Cl)c(NS(=O)(=O)c3ccc(F)cc3F)c2C)c(C)cn1` in terms of IC50 is 10 to 50 nM

The reported value for `CC(=O)Nc1cc(-c2cnc(C)c(NS(=O)(=O)CC(F)F)c2)ccn1` in terms of IC50 is 10 to 50 nM

The reported value for `CC(=O)Nc1cc(-c2cnc(N)c(S(=O)(=O)NCC(C)C)c2)ccn1` in terms of IC50 is < 10 nM

The reported value for `CC(=O)Nc1cc(-c2cnc(C)c(NS(=O)(=O)c3ccc(C(C)(C)C)cc3)c2)ccn1` in terms of IC50 is < 10 nM

The reported value for `CCc1c(-c2ccnc(NC(C)=O)c2)cnc(Cl)c1NS(=O)(=O)c1ccc(F)cc1F` in terms of IC50 is 10 to 50 nM

The reported value for `Cc1ncc(-c2ccnc(NC(=O)N3CCCC3)c2)cc1NS(=O)(=O)c1ccc(F)cc1F` in terms of IC50 is 10 to 50 nM

The reported value for `CCNC(=O)Nc1cc(-c2ccnc(Nc3ccnc(C)n3)c2)cnc1C` in terms of IC50 is 50 to 100 nM

The reported value for `CC(=O)Nc1cc(-c2cnc3[nH]cc(CN(C)C)c3c2)ccn1` in terms of IC50 is > 100 nM

The reported value for `Cc1ncc(-c2ccnc(Nc3ccn(C)n3)c2)cc1NS(=O)(=O)c1ccc(F)cc1F` in terms of IC50 is 10 to 50 nM

The reported value for CC(=O)Nc1cc(-c2cnc(Cl)c(S(=O)(=O)NC(CO)c3ccccc3)c2)ccn1 (stereo in doubt) in terms of IC50 is > 100 nM

The reported value for Cc1ncc(-c2ccnc(NC(=O)C3CC3(F)F)c2)cc1NS(=O)(=O)c1ccc(F)cc1F (racemic) [Compound I-16] in terms of IC50 is < 10 nM

The reported value for `COc1cc(F)c(S(=O)(=O)Nc2cc(-c3ccnc(NC(C)=O)c3)cnc2C)cc1F` in terms of IC50 is < 10 nM

The reported value for `CC(=O)Nc1cc(-c2cncc(N)c2)ccn1` in terms of IC50 is > 100 nM

The reported value for `CC(=O)Nc1cc(-c2cnc(C)c(NS(=O)(=O)c3ccc(F)cc3F)c2)cc(C)n1` in terms of IC50 is 50 to 100 nM

The reported value for `Cc1nccc(Nc2cc(-c3cnc(C)c(NC(=O)Nc4ccccc4)c3)ccn2)n1` in terms of IC50 is > 100 nM

The reported value for `CC(=O)Nc1cc(-c2cncc(NS(=O)(=O)N(C)C)c2)ccn1` in terms of IC50 is 10 to 50 nM

The reported value for `CC(=O)Nc1cc(-c2cnc3[nH]cc(S(=O)(=O)N4CCN(C)CC4)c3c2)ccn1` in terms of IC50 is < 10 nM

The reported value for `COc1nccc(Nc2cc(-c3cncc(C(=O)N(C)C45CC(C4)C5)c3)ccn2)n1` in terms of IC50 is 10 to 50 nM

The reported value for `CC(=O)Nc1cc(-c2cnc(C)c(N3CC=CS3(=O)=O)c2)ccn1` in terms of IC50 is 10 to 50 nM

The reported value for `Cc1nccc(Nc2cc(-c3cnc(C)c(C(=O)N(C)C45CC(C4)C5)c3)ccn2)n1` in terms of IC50 is 10 to 50 nM

The reported value for `CNc1ncc(-c2ccnc(NC(C)=O)c2)cc1N(C)S(C)(=O)=O` in terms of IC50 is < 10 nM

The reported value for `Cc1c(-c2ccnc(Nc3ccncn3)c2)cnc(Cl)c1NS(=O)(=O)c1ccc(F)cc1F` in terms of IC50 is < 10 nM

The reported value for `CC(=O)Nc1cc(-c2cnc(N)c(S(=O)(=O)NCC3CCCCC3)c2)ccn1` in terms of IC50 is < 10 nM

The reported value for `Cc1c(-c2ccnc(Nc3ncc(C#N)cn3)c2)cnc(Cl)c1NS(=O)(=O)c1ccc(F)cc1F` in terms of IC50 is 10 to 50 nM

The reported value for `CNc1ncc(-c2ccnc(NC(C)=O)c2)cc1S(=O)(=O)Nc1ccc(F)cc1F` in terms of IC50 is < 10 nM

The reported value for `CC(=O)Nc1cc(-c2cnc(N)c(S(=O)(=O)Cc3ccccc3)c2)ccn1` in terms of IC50 is 10 to 50 nM

The reported value for `Cc1nccc(Nc2cc(-c3cnc(C)c(N4CCCN(C)S4(=O)=O)c3)ccn2)n1` in terms of IC50 is 10 to 50 nM

The reported value for `CCN(c1cc(-c2ccnc(NC(C)=O)c2)cnc1C)S(=O)(=O)C1CC1` in terms of IC50 is 50 to 100 nM

The reported value for `CC(=O)Nc1cc(-c2cnc(C)c(N(CCO)S(=O)(=O)c3ccc(F)cc3F)c2)ccn1` in terms of IC50 is > 100 nM

The reported value for `Cc1ncc(-c2ccnc(-n3cnc4c(C)nccc43)c2)cc1NS(=O)(=O)N(C)C` in terms of IC50 is > 100 nM

The reported value for `CC(=O)Nc1cc(-c2cnc(N)c(C(=O)N3CCC(F)(F)C3)c2)ccn1` in terms of IC50 is 10 to 50 nM
